Source listed as patent US20250352494A1.

ASSAY COMMENT: in vivo
TEST CONDITIONS: CD, rat, plasma, other: passive transdermal, 2 mg
Ends that are not written are not given here.
QUANTITY MEASURED: bioavailability (%)
Please state the figure in %; there is no need to write the unit.

# input sequence: HRGHQPPPEMA [p3-Alcβ9-19] ; wanted: its bioavailability
0

###

ASSAY COMMENT: in vivo
TEST CONDITIONS: CD, rat, plasma, subcutaneous, 2 mg
Ends that are not written are not given here.
QUANTITY MEASURED: bioavailability

# input sequence: HRGHQPPPEMA [p3-Alcβ9-19] ; wanted: its bioavailability
120 to 275%

###

ASSAY COMMENT: in vivo
TEST CONDITIONS: CD, rat, plasma, iv, 2 mg
Description: Animal Studies in Rats. […] In vivo PK studies were performed in CD rats (Charles River Laboratories) according to IACUC-approved Animal Protocols. Each dosing formulation was prepared prior to the experiments. The patch was manufactured according to dry patch manufacturing procedure. The animals for transdermal applications were shaved 1 day before the dosing date. The transdermal microporation was applied using the Applicator and Porator. […]
Ends that are not written are not given here.
QUANTITY MEASURED: bioavailability (%)
Please state the figure in %; there is no need to write the unit.

# input sequence: HRGHQPPPEMA [p3-Alcβ9-19] ; wanted: its bioavailability
100

###

ASSAY COMMENT: p3-Alcβ9-19 in mouse plasma (sELISA) after transdermal microporation patch or subcutaneous injection
Assay type: in vivo, wild-type mice
TEST CONDITIONS: mouse, sc, 30 ug; mice plasma; subcutaneous injection 30 μg
Source text: Animal Studies in Mice. […] The hair was removed prior to the experiments. […] Exp. 21 (2008). sELISA method for p3-Alcβ9-19 Analysis.
Ends that are not written are not given here.
QUANTITY MEASURED: Cmax (ng/mL)
Please state the figure in ng/mL; there is no need to write the unit.

# input sequence: HRGHQPPPEMA [p3-Alcβ9-19] ; wanted: its Cmax
25.5

###

ASSAY COMMENT: p3-Alcβ9-19 in mouse plasma (sELISA) after transdermal microporation patch or subcutaneous injection
Type: in vivo, wild-type mice
TEST CONDITIONS: mouse, sc, 30 ug; mice plasma; subcutaneous injection 30 μg
Ends that are not written are not given here.
QUANTITY MEASURED: Tmax (min)
Please state the figure in min; there is no need to write the unit.

# input sequence: HRGHQPPPEMA [p3-Alcβ9-19] ; wanted: its Tmax
18.8

###

ASSAY COMMENT: in vivo
TEST CONDITIONS: CD, rat, plasma, other: transdermal microporation
Ends that are not written are not given here.
QUANTITY MEASURED: Tmax

# input sequence: HRGHQPPPEMA [p3-Alcβ9-19] ; wanted: its Tmax
~1 h

###

ASSAY COMMENT: in vivo
TEST CONDITIONS: CD, rat, plasma, other: nasal, 2 mg
Ends that are not written are not given here.
QUANTITY MEASURED: bioavailability
The reply must contain the numeric value and, after it, the unit.

# input sequence: HRGHQPPPEMA [p3-Alcβ9-19] ; wanted: its bioavailability
0%

###

ASSAY COMMENT: in vivo
TEST CONDITIONS: CD, rat, plasma, oral, 2 mg
Ends that are not written are not given here.
QUANTITY MEASURED: bioavailability (%)
Please state the figure in %; there is no need to write the unit.

# input sequence: HRGHQPPPEMA [p3-Alcβ9-19] ; wanted: its bioavailability
0

###

ASSAY COMMENT: p3-Alcβ9-19 in mouse plasma (sELISA) after transdermal microporation patch or subcutaneous injection
Type: in vivo, wild-type mice
TEST CONDITIONS: mouse, sc, 30 ug; mice plasma; subcutaneous injection 30 μg; read-out: AUC0-360 (converted)
Ends that are not written are not given here.
QUANTITY MEASURED: AUC(0-t) (ng·h/mL)
Please state the figure in ng·h/mL; there is no need to write the unit.

# input sequence: HRGHQPPPEMA [p3-Alcβ9-19] ; wanted: its AUC(0-t)
9.84

###

ASSAY COMMENT: in vivo
TEST CONDITIONS: mouse, cerebrospinal fluid, sc, 30 ug
Ends that are not written are not given here.
QUANTITY MEASURED: Tmax
The reply must contain the numeric value and, after it, the unit.

# input sequence: HRGHQPPPEMA [p3-Alcβ9-19] ; wanted: its Tmax
15 min
